A collection of molecules and their measured IC50
# target_or_test_system: human TLR9 (Homo sapiens)
# Sequence (Q9NR96 26-1032): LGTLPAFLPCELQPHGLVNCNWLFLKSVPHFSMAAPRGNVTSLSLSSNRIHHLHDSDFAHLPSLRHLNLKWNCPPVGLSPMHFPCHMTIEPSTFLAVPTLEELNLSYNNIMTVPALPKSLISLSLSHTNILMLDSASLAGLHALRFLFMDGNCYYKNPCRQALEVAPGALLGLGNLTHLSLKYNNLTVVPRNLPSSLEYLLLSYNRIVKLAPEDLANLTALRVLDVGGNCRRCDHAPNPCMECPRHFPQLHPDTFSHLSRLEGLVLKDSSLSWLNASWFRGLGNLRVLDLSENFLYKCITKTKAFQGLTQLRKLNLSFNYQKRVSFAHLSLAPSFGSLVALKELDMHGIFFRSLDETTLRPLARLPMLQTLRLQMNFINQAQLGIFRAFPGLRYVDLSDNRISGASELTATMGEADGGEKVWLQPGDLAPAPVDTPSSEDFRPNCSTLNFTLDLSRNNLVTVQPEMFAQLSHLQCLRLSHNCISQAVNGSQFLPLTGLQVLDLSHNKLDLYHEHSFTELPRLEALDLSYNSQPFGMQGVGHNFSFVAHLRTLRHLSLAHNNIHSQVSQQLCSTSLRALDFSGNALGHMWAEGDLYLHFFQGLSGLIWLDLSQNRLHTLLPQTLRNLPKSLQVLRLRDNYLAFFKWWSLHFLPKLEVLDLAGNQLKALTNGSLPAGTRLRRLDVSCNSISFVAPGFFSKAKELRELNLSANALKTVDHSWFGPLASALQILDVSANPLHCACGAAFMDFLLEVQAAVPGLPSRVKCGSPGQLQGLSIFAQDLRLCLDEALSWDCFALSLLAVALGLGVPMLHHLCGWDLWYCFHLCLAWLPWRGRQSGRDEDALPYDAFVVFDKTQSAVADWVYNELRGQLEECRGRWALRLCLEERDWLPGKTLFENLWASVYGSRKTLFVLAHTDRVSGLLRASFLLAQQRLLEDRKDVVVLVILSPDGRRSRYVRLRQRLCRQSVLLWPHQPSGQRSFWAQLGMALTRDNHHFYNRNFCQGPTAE
# measurement_description: TLR9 inhibition reporter assay (HEK-Blue cells, SEAP reporter, ODN2006 stimulation)
# experimental_context: HEK-Blue cells overexpressing human TLR9, SEAP reporter, ODN2006 5 nM
Please state the number and follow it with the unit.

// known answers, use as guide
1. Cc1cc(-c2[nH]c3ccc(C4CCCN(CC(=O)N(C)C)C4)cc3c2C(C)C)cc(C)n1 (stereo not drawn) [Example 233]
1.35 µM
2. CNCC(=O)N1CCCC(c2ccc3[nH]c(-c4cc(OC)c5ncnn5c4)c(C(C)C)c3c2)C1 (stereo not drawn) [Example 212]
8.47 µM
3. COc1cc(-c2[nH]c3ccc(C4CCC(N(C)C(C)C)C4)cc3c2C(C)C)cn2ncnc12 (single isomer, unassigned) [Example 275]
1.27 µM
4. Cc1c(-c2[nH]c3ccc(C4CC5CN(C)CC5C4)cc3c2C(C)C)cn2cnnc2c1C (stereo not drawn)
2.12 µM
5. Cc1c(-c2[nH]c3ccc(C4CC5CNCC5C4)cc3c2C(C)C)cn2cnnc2c1C (stereo not drawn)
2.51 µM
6. Cc1c(-c2[nH]c3ccc(CC4CN(C5CCOCC5)C4)cc3c2C(C)C)cn(C)c(=O)c1C
4.09 µM

(Q) Report IC50 for COc1cc(-c2[nH]c3ccc(CCC4CN(C)C4)cc3c2C(C)C)cn2ncnc12 please.
(A) 2.1 µM

(Q) Report IC50 for Cc1c(-c2[nH]c3ccc(C4CCCNC4)cc3c2C(C)C)cn2ncnc2c1C (stereo not drawn) [Example 189] please.
(A) 1.03 µM

(Q) Report IC50 for Cc1c(-c2[nH]c3ccc(C4CCC(N5CC(CO)(CO)C5)CC4)cc3c2C(C)C)cn2ncnc2c1C (single isomer, unassigned) [Example 26] please.
(A) 0.26 µM

(Q) Report IC50 for COc1cc(-c2[nH]c3ccc(C4CCC(NC5(C)CC5)CC4)cc3c2C(C)C)cn2ncnc12 (stereo not drawn) [Example 42] please.
(A) 2.61 µM

(Q) Report IC50 for COCCN1CCOC(c2ccc3[nH]c(-c4cc(OC)c5ncnn5c4)c(C(C)C)c3c2)C1 (stereo not drawn) please.
(A) 8.61 µM

(Q) Report IC50 for Cc1c(-c2[nH]c3ccc(C4CN(C)C4)cc3c2C(C)C)cn2cnnc2c1C please.
(A) 2.19 µM

FYI, the data here is from patent US11878975B2.
